assay_system: T1, JEV SA14-14-2 envelope (E) protein on virions (Japanese encephalitis virus strain …, UniProt P0DOH7 295-794)
T1 chain: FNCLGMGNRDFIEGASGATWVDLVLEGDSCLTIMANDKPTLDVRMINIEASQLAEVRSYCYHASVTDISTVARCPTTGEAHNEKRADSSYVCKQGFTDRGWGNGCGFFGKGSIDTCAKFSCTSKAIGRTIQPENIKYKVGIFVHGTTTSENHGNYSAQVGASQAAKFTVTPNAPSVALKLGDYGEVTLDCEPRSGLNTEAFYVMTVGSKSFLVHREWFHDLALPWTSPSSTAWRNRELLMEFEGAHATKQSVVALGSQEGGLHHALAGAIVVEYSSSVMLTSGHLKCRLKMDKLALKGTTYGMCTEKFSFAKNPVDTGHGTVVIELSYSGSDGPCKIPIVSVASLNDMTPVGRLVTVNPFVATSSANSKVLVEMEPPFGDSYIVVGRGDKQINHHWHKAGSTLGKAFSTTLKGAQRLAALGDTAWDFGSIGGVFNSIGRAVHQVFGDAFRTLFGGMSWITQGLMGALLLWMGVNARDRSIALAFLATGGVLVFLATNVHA
protocol_summary: ELISA on JEV virions captured by HMAF, concentration at half-maximal binding
measured_property: pKd
Notebook: values listed as pKd are -log10 of the concentration (mol/L).

binder	pKd
Fab B2 (Fab, V domains shown) VH: VQLLEQSGSEVKKPGASVKVSCKASGYPFTDYAMSWVRQAPGQGLEYMGWIFTNSGNPTYAPGFAGRFVFSLDISVNTAYLHIDSLKPEDTAVYYCARGIVTPAASGDYFDSWGQGTLVTVSS VL: ELVLTQSPSSLSASIGDRVTITCRASQHISSWLAWYQQKPGKAPKPLIYAASSLKSGVPSRFSGSGSGTDFTLTISGLQPEDFATYYCQQYENSPVTFGGGTKVEIKR	9.55

Attention now turns to another entry.
**Q:** Quick one: pKd of humanized MAb B2 (antibody, V domains shown) VH: VQLLEQSGSEVKKPGASVKVSCKASGYPFTDYAMSWVRQAPGQGLEYMGWIFTNSGNPTYAPGFAGRFVFSLDISVNTAYLHIDSLKPEDTAVYYCARGIVTPAASGDYFDSWGQGTLVTVSS VL: ELVLTQSPSSLSASIGDRVTITCRASQHISSWLAWYQQKPGKAPKPLIYAASSLKSGVPSRFSGSGSGTDFTLTISGLQPEDFATYYCQQYENSPVTFGGGTKVEIKR ?
**A:** 10.10
